- Tested on: DU-145
- procedure.details: Cytotoxicity against human DU145 cells measured after 72 hrs by Celltiter-Glo assay
- Type: functional, cell-based
- condition.parameters: DU-145, 72 h
result.type: IC50 (nM)

* COc1ccc(-c2cc(O)c(-c3ccc(OC)cc3)c(OC)c2OC)cc1 | 1000
* COc1cccc2c1C(=O)c1c(O)c3c(c(O)c1C2=O)C[C@@](O)(C(=O)CO)C[C@@H]3O[C@H]1C[C@H](N)[C@H](O)[C@H](C)O1 | 51
* COC1=C(c2ccc(OC)cc2)C(=O)C=C(c2ccc(OC)cc2)C1=O | 520

###

Reported values of pIC50 for individual entries
- Test system: A-431
- procedure.details: Cytotoxicity against human A431 cells measured after 72 hrs by Celltiter-Glo assay
- Type: functional, cell-based
- condition.parameters: A-431, 72 h
pIC50: −log10 of the molar value.
result.type: pIC50

• COc1ccc(-c2c(OC)c(O)c(-c3ccc(OC)cc3)c3sc(CO)nc23)cc1 = 5.34
• COc1cccc2c1C(=O)c1c(O)c3c(c(O)c1C2=O)C[C@@](O)(C(=O)CO)C[C@@H]3O[C@H]1C[C@H](N)[C@H](O)[C@H](C)O1 = 6.80

###

Reported values of IC50 for individual entries
- Test system: MV4-11
- procedure.details: Cytotoxicity against human MV4-11 cells measured after 72 hrs by Celltiter-Glo assay
- Assay type: functional, cell-based
- condition.parameters: MV4-11, 72 h
result.type: IC50 (nM)

* COc1ccc(-c2c(OC)c(O)c(-c3ccc(OC)cc3)c3sc(CO)nc23)cc1 | 4000
* COC1=C(c2ccc(OC)cc2)C(=O)C=C(c2ccc(OC)cc2)C1=O | 160
* COc1ccc(-c2cc(O)c(-c3ccc(OC)cc3)c(OC)c2OC)cc1 | 770
* COc1cccc2c1C(=O)c1c(O)c3c(c(O)c1C2=O)C[C@@](O)(C(=O)CO)C[C@@H]3O[C@H]1C[C@H](N)[C@H](O)[C@H](C)O1 [DOXORUBICIN] | 160

###

- Tested on: B16-F10
- procedure.details: Cytotoxicity against mouse B16/F10 cells measured after 72 hrs by Celltiter-Glo assay
- Assay type: functional, cell-based
- condition.parameters: B16-F10, 72 h
result.type: IC50

• COc1cccc2c1C(=O)c1c(O)c3c(c(O)c1C2=O)C[C@@](O)(C(=O)CO)C[C@@H]3O[C@H]1C[C@H](N)[C@H](O)[C@H](C)O1 [DOXORUBICIN] = 16 nM
• COc1ccc(-c2c3c(c(-c4ccc(OC)cc4)c(O)c2OC)SCC(=O)N3)cc1 = > 100000 nM
• COc1ccc(-c2cc(O)c(-c3ccc(OC)cc3)c(OC)c2OC)cc1 = > 100000 nM
• COC1=C(c2ccc(OC)cc2)C(=O)C=C(c2ccc(OC)cc2)C1=O = 760 nM
• COc1ccc(-c2c(OC)c(O)c(-c3ccc(OC)cc3)c3sc(CO)nc23)cc1 = > 100000 nM

###

- Test system: A-431
- procedure.details: Cytotoxicity against human A431 cells measured after 72 hrs by Celltiter-Glo assay
- Assay type: functional, cell-based
- condition.parameters: A-431, 72 h
result.type: IC50

* COC1=C(c2ccc(OC)cc2)C(=O)C=C(c2ccc(OC)cc2)C1=O | > 100 µM
* COc1ccc(-c2c3c(c(-c4ccc(OC)cc4)c(O)c2OC)SCC(=O)N3)cc1 | > 100 µM
* COc1ccc(-c2cc(O)c(-c3ccc(OC)cc3)c(OC)c2OC)cc1 | > 100 µM
